- Tested on: Jurkat, Clone E6-1 cells
- ASSAY NAME: In vitro cell proliferation assay, monotherapy (CellTiter-Glo)
- Type: cell-based
- RUN CONDITIONS: Homo sapiens, experiments that were conducted previously, read-out: IC50 (superscript 2)
MEASURE NAME: pIC50
Note: pIC50 values are expressed as the negative base-10 logarithm of concentration in M.

input: So what does the record say about pIC50 for C[C@H](OP(=O)(N1CC1)N1CC1)c1ccc([N+](=O)[O-])c(Oc2cccc(C(=O)N(C)C)c2)c1 ?
output: 7.62

----------
- Test system: MOLT-4 cells
- ASSAY NAME: In vitro cell proliferation assay, monotherapy (CellTiter-Glo)
- Type: cell-based
- RUN CONDITIONS: Homo sapiens, experiments that were conducted previously, read-out: IC50 (superscript 2)
MEASURE NAME: IC50 (nM)
Write down the numeric answer in nM and omit the unit.

input: So what does the record say about IC50 for C[C@H](OP(=O)(N1CC1)N1CC1)c1ccc([N+](=O)[O-])c(Oc2cccc(C(=O)N(C)C)c2)c1 [AST-3424] ?
output: 10

Recorded values, source patent US20260345647A1.
